The following molecules are listed with their measured LD50 values.
# Assay Protocol: Acute toxicity after a single oral administration to mice
# Conditions: mouse, in vivo, p.o., read-out: DL₅₀

| Molecule | LD50 |
| --- | --- |
| CCCCOC(=O)c1cc(O)c(O)c([N+](=O)[O-])c1 | 312 to 625 mg/kg |
| CCOC(=O)C(=O)c1cc(O)c(O)c([N+](=O)[O-])c1 | 1250 to 2500 mg/kg |
| O=C(c1cc(O)c(O)c([N+](=O)[O-])c1)c1ccccc1F | 312 to 625 mg/kg |
| CCCCOC(=O)C=Cc1cc(O)c(O)c([N+](=O)[O-])c1 | 2500 to 5000 mg/kg |
| O=[N+]([O-])c1cc(O)c(O)c([N+](=O)[O-])c1 | 500 to 1000 mg/kg |
| O=C(c1ccccc1)c1cc(O)c(O)c([N+](=O)[O-])c1 [3,4-Dihydroxy-5-nitrobenzophenon] | 500 to 1000 mg/kg |

* * *

# System Name: Catechol-O-Methyl-Transferase (COMT) (Rattus norvegicus, UniProt P22734)
# Sequence (P22734 1-264): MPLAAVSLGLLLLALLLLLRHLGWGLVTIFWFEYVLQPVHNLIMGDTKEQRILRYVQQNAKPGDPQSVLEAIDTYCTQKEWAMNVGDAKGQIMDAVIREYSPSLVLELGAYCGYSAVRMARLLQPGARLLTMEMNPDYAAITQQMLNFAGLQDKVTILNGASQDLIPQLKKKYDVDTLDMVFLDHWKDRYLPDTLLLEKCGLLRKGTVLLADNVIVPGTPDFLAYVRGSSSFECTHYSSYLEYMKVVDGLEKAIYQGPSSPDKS
Listed here are molecules together with their documented IC50.
Readout Label: IC50

| Molecule | Readout Label | Observed Measurement |
| --- | --- | --- |
| CCCCOC(=O)C=Cc1cc(O)c(O)c([N+](=O)[O-])c1 | IC50 | 25.9 nM |
| O=C(c1cc(O)c(O)c([N+](=O)[O-])c1)c1ccccc1F | IC50 | 42 nM |
| CCCCOC(=O)c1cc(O)c(O)c([N+](=O)[O-])c1 | IC50 | 20 nM |
| CCOC(=O)C(=O)c1cc(O)c(O)c([N+](=O)[O-])c1 | IC50 | 48.1 nM |
| O=C(c1ccccc1)c1cc(O)c(O)c([N+](=O)[O-])c1 [3,4-Dihydroxy-5-nitrobenzophenon] | IC50 | 48 nM |
